Listing of entries alongside the reported pKd.
Study Target: T1, (FUS-ZF)x2 (Xenopus laevis, UniProt Q7ZXQ2 435-467)
T1 chain: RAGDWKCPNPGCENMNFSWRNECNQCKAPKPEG
Assay Method Text: BLI; ITC: 50 mM Tris pH 7.5, 150 mM NaCl, 1 mM DTT, 0.1 mM ZnCl2, 25 °C; BLI: 50 mM Tris pH 7.5, 150 mM NaCl, 1 mM DTT, 0.1% BSA, 0.02% Tween, 30 °C
Condition Label: protein: recombinant; tags: GST cleaved (HRV-3C); label: 5' biotin
Kindly note that pKd refers to -log10 of the concentration in mol/L and answer with the value alone.

AAAGGGGGGAAA (ssRNA) [(GGG)x2 biotin] ... 5.96

With those in mind, consider the next binder.
Recall and state the measured pKd for AAAGGUGGUAAA (ssRNA) [(GGU)x2 biotin] .
6.10
